These measurements were taken from patent US9273046B2.

Target: C-Raf (Y340D/Y341D) (Homo sapiens (Human), UniProt P04049, Y340D/Y341D)
Sequence (P04049 whole entry Y340D/Y341D): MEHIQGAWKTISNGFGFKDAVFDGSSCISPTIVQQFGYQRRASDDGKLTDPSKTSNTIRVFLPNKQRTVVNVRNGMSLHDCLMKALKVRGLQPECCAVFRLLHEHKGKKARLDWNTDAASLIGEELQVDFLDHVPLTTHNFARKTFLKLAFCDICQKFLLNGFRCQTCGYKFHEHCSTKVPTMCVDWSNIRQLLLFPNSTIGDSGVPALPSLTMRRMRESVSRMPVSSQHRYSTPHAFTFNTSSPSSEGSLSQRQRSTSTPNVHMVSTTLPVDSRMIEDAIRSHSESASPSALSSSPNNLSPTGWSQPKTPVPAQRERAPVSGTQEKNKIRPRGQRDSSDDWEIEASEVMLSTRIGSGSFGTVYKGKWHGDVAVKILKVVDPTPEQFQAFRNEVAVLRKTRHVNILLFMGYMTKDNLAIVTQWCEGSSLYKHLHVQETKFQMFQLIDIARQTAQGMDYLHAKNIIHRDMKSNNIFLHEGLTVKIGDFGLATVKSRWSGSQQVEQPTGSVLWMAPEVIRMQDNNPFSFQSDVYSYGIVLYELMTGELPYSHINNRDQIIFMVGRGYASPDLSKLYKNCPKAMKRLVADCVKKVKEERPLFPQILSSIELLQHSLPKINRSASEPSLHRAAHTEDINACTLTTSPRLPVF
Assay: Raf IC50 assay, time-resolved fluorescence energy transfer (TR-FRET), C-Raf
Conditions: 0.5 nM C-Raf, 0.1 mM ATP, GST-tagged MEK1 substrate, 60 min preincubation
Reported pIC50 values follow for various compounds
Notebook: values listed as pIC50 are -log10 of the concentration (mol/L).

Solved cases (2 shown):
# compound, pIC50
records = [
    ("Cc1ccc2nc(C3C4Oc5ccc(Oc6ccnc7c6CCC(=O)N7)cc5C43)[nH]c2c1 (centres unmarked)", 9.15),
    ("O=C1CCc2c(Oc3ccc4c(c3)C3C(O4)C3c3nc4cccc(F)c4[nH]3)ccnc2N1 (centres unmarked)", 8.80),
]

Incoming: Which measured pIC50 value corresponds to COc1ccc2nc(C3C4Oc5ccc(Oc6ccnc7c6CCC(=O)N7)cc5C43)[nH]c2c1 (centres unmarked) ?
Outgoing: 8.42

Incoming: Which measured pIC50 value corresponds to O=C1CCc2c(Oc3ccc4c(c3)C3C(O4)C3c3nc4cccc(C(F)(F)F)c4[nH]3)ccnc2N1 (centres unmarked) ?
Outgoing: 8.21

Incoming: Which measured pIC50 value corresponds to NC(=O)c1ccc2nc(C3C4Oc5ccc(Oc6ccnc7c6CCC(=O)N7)cc5C43)[nH]c2c1 (centres unmarked) ?
Outgoing: 9.00

* * *

Target: C-Raf (Y340D/Y341D) (Homo sapiens (Human), UniProt P04049, Y340D/Y341D)
Test: Raf IC50 assay, time-resolved fluorescence energy transfer (TR-FRET), C-Raf
Conditions: 0.5 nM C-Raf, 0.1 mM ATP, GST-tagged MEK1 substrate, 60 min preincubation
Reported pIC50 values follow for various molecules
Notebook: values listed as pIC50 are -log10 of the concentration (mol/L).

Solved cases (3 shown):
# molecule, measurement.label, observed
records = [
    ("O=C1CCc2c(Oc3ccc4c(c3)C3C(O4)C3c3nc4cc(Cl)c(F)cc4[nH]3)ccnc2N1 (centres unmarked) [Compound 2.17]", "pIC50", 8.23),
    ("FC(F)(F)c1ccc2nc(C3C4Oc5ccc(Oc6ccnc(-c7nc(C(F)(F)F)c[nH]7)c6)cc5C43)[nH]c2c1 (racemic) [Compound 3.4]", "pIC50", 7.25),
    ("FC(F)(F)c1ccc2nc(C3C4Oc5ccc(Oc6ccncc6)cc5C43)[nH]c2c1 (racemic) [Compound 3.6]", "pIC50", 7.07),
]

Incoming: Which measured pIC50 value corresponds to Cc1cc2[nH]c([C@@H]3[C@H]4Oc5ccc(Oc6ccnc7c6CCC(=O)N7)cc5[C@H]43)nc2cc1F [Compound 2.4a] ?
Outgoing: 9.27

Incoming: Which measured pIC50 value corresponds to O=C1CCc2c(Oc3cccc4c3OC3C(c5nc6ccc(C(F)(F)F)cc6[nH]5)C43)ccnc2N1 (centres unmarked) [Compound 2.25] ?
Outgoing: 7.44

* * *

Reported pIC50 values follow for various compounds
Target: B-Raf (V600E) (Homo sapiens (Human), UniProt P15056, V600E)
Sequence (P15056 whole entry V600E): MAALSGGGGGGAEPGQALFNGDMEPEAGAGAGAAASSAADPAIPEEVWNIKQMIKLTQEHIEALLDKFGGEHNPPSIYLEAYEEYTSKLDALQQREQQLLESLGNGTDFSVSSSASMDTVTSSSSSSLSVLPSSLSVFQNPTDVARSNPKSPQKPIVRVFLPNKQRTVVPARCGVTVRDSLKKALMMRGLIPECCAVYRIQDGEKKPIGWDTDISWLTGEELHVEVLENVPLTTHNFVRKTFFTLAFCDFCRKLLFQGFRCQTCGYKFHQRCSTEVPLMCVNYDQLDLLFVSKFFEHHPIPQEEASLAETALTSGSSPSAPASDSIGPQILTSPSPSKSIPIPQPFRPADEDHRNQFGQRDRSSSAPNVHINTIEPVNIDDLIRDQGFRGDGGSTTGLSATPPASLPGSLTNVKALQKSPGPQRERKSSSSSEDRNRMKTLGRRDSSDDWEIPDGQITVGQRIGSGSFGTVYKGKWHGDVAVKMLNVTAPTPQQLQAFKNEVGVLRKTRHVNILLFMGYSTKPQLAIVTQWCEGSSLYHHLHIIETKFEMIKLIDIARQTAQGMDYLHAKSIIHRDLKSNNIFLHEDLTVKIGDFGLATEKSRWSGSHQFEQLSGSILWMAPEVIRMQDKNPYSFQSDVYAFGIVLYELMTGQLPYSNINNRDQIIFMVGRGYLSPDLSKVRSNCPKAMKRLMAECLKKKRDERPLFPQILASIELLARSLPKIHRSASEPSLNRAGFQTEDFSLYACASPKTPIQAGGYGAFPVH
Assay: Raf IC50 assay, time-resolved fluorescence energy transfer (TR-FRET), B-Raf
Assay type: biochemical
Conditions: 0.0625 nM B-Raf, 0.1 mM ATP, GST-tagged MEK1 substrate, 60 min preincubation; read-out: B-Raf (V600E) IC50
Notebook: values listed as pIC50 are -log10 of the concentration (mol/L).

Solved cases (2 shown):
# compound, measurement.label, observed
rows = [
    ("Cc1ccc2nc(C3C4Oc5ccc(Oc6ccnc7c6CCC(=O)N7)cc5C43)[nH]c2c1 (centres unmarked)", "pIC50", 8.43),
    ("O=C1CCc2c(Oc3ccc4c(c3)C3C(O4)C3c3nc(-c4ccccc4Cl)c[nH]3)ccnc2N1 (centres unmarked)", "pIC50", 8.48),
]

Incoming: Which measured pIC50 value corresponds to NC(=O)c1ccc2nc(C3C4Oc5ccc(Oc6ccnc7c6CCC(=O)N7)cc5C43)[nH]c2c1 (centres unmarked) ?
Outgoing: 8.40

Incoming: Which measured pIC50 value corresponds to O=C1Nc2nccc(Oc3ccc4c(c3)C3C(O4)C3c3nc4ccc(C(F)(F)F)cc4[nH]3)c2CO1 (racemic) ?
Outgoing: 7.59

Incoming: Which measured pIC50 value corresponds to O=C1CCc2c(Oc3ccc4c(c3)C3C(O4)C3c3nc4cc5c(cc4[nH]3)CCC5)ccnc2N1 (centres unmarked) ?
Outgoing: 8.92

Incoming: Which measured pIC50 value corresponds to O=C1CCc2c(Oc3ccc4c(c3)C3C(O4)C3c3nc(-c4ccncc4)c[nH]3)ccnc2N1 (centres unmarked) ?
Outgoing: 8.43

Incoming: Which measured pIC50 value corresponds to O=C1CCc2c(Oc3ccc4c(c3)C3C(O4)C3c3nc4cc(Cl)c(F)cc4[nH]3)ccnc2N1 (centres unmarked) ?
Outgoing: 8.27

Incoming: Which measured pIC50 value corresponds to O=C1CCc2c(Oc3ccc4c(c3)C3C(O4)C3c3nc(-c4ccccc4)c[nH]3)ccnc2N1 (racemic) ?
Outgoing: 9.14

Incoming: Which measured pIC50 value corresponds to O=C1CCc2c(Oc3ccc4c(c3)C3C(O4)C3c3nc4c(Cl)cc(C(F)(F)F)cc4[nH]3)ccnc2N1 (centres unmarked) ?
Outgoing: 7.10

Incoming: Which measured pIC50 value corresponds to N#Cc1ccc2nc(C3C4Oc5ccc(Oc6ccnc7c6CCC(=O)N7)cc5C43)[nH]c2c1 (centres unmarked) ?
Outgoing: 7.66

Incoming: Which measured pIC50 value corresponds to O=C1CCc2c(Oc3ccc4c(c3)C3C(O4)C3c3nc4ccc(Br)cc4[nH]3)ccnc2N1 (centres unmarked) ?
Outgoing: 8.14

Incoming: Which measured pIC50 value corresponds to O=C1CCc2c(Oc3ccc4c(c3)C3C(O4)C3c3nc4cc(F)c(F)cc4[nH]3)ccnc2N1 (centres unmarked) ?
Outgoing: 8.23

Incoming: Which measured pIC50 value corresponds to Cn1c(C2C3Oc4ccc(Oc5ccnc6c5CCC(=O)N6)cc4C32)nc2cc(C(F)(F)F)ccc21 (centres unmarked) ?
Outgoing: 7.33

Incoming: Which measured pIC50 value corresponds to O=C1CCc2c(Oc3cc4c(cc3Cl)OC3C(c5nc6ccc(C(F)(F)F)cc6[nH]5)C43)ccnc2N1 (racemic) ?
Outgoing: 6.93

Incoming: Which measured pIC50 value corresponds to COc1ccc2nc(C3C4Oc5ccc(Oc6ccnc7c6CCC(=O)N7)cc5C43)[nH]c2c1 (centres unmarked) ?
Outgoing: 7.82

Incoming: Which measured pIC50 value corresponds to O=C1CCc2c(Oc3ccc4c(c3)C3C(O4)C3c3nc4ccccc4[nH]3)ccnc2N1 (racemic) ?
Outgoing: 8.51

Incoming: Which measured pIC50 value corresponds to O=C1CCc2c(Oc3ccc4c(c3)C3C(O4)C3c3nc4cccc(C(F)(F)F)c4[nH]3)ccnc2N1 (centres unmarked) ?
Outgoing: 7.05

Incoming: Which measured pIC50 value corresponds to O=C1CCc2c(Oc3ccc4c(c3)C3C(O4)C3c3nc4cc(C(F)(F)F)ccc4n3CCO)ccnc2N1 (racemic) ?
Outgoing: 7.52

Incoming: Which measured pIC50 value corresponds to O=C1CCc2c(Oc3ccc4c(c3)C3C(O4)C3c3nc4ccncc4[nH]3)ccnc2N1 (centres unmarked) ?
Outgoing: 7.38

Incoming: Which measured pIC50 value corresponds to O=C1CCc2c(Oc3ccc4c(c3)C3C(O4)C3c3nc4ccc(OC(F)(F)F)cc4[nH]3)ccnc2N1 (centres unmarked) ?
Outgoing: 7.55

Incoming: Which measured pIC50 value corresponds to O=C1CCc2c(Oc3ccc4c(c3)C3C(C4)C3c3nc4ccccc4s3)ccnc2N1 (racemic) ?
Outgoing: 7.06

Incoming: Which measured pIC50 value corresponds to FC(F)(F)c1ccc2nc(C3C4Oc5ccc(Oc6ccnc(-c7nc(C(F)(F)F)c[nH]7)c6)cc5C43)[nH]c2c1 (racemic) ?
Outgoing: 6.54

Incoming: Which measured pIC50 value corresponds to CC(C)(C)c1ccc2nc(C3C4Oc5ccc(Oc6ccnc7c6CCC(=O)N7)cc5C43)[nH]c2c1 (centres unmarked) ?
Outgoing: 7.48

Incoming: Which measured pIC50 value corresponds to O=C1CCc2c(Oc3ccc4c(c3)[C@H]3[C@@H](O4)[C@@H]3c3nc4ccc(C(F)(F)F)cc4[nH]3)ccnc2N1 ?
Outgoing: 8.17

Incoming: Which measured pIC50 value corresponds to FC(F)(F)c1ccc2nc(C3C4Oc5ccc(Oc6ccncc6)cc5C43)[nH]c2c1 (racemic) ?
Outgoing: 6.29

Incoming: Which measured pIC50 value corresponds to Cn1c(C2C3Oc4ccc(Oc5ccnc6c5CCC(=O)N6)cc4C32)nc2ccccc21 (centres unmarked) ?
Outgoing: 7.92

Incoming: Which measured pIC50 value corresponds to Cn1c(C2C3Oc4ccc(Oc5ccnc6c5CCC(=O)N6)cc4C32)nc2ccc(C(F)(F)F)cc21 (centres unmarked) ?
Outgoing: 6.69

Incoming: Which measured pIC50 value corresponds to O=C1CCc2c(Oc3ccc4c(c3)C3C(C4)C3c3nc4ccccc4[nH]3)ccnc2N1 (racemic) ?
Outgoing: 7.96

Incoming: Which measured pIC50 value corresponds to O=C1CCc2c(Oc3cccc4c3OC3C(c5nc6ccc(C(F)(F)F)cc6[nH]5)C43)ccnc2N1 (centres unmarked) ?
Outgoing: 6.07
